system: recombinant human SAE enzyme (Homo sapiens (Human))
Sequence (Q9UBT2 whole entry): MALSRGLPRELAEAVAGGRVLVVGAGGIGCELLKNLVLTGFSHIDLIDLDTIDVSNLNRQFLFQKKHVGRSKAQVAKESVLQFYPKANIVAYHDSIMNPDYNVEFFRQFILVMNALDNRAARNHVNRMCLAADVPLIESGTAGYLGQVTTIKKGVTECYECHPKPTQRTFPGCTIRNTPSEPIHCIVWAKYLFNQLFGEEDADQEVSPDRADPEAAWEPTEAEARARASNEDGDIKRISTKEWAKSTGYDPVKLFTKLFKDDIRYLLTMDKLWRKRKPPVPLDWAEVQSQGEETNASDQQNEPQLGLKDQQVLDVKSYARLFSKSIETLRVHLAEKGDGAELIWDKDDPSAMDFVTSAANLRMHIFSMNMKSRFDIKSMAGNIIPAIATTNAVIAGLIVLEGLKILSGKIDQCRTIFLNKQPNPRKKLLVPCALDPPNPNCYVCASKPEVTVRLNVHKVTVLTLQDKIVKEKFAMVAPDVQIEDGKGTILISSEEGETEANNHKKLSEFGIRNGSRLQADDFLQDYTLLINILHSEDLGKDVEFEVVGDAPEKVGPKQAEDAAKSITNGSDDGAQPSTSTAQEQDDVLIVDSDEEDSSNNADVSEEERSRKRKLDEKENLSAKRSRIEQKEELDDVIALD
Sequence (Q9UBE0 whole entry partner): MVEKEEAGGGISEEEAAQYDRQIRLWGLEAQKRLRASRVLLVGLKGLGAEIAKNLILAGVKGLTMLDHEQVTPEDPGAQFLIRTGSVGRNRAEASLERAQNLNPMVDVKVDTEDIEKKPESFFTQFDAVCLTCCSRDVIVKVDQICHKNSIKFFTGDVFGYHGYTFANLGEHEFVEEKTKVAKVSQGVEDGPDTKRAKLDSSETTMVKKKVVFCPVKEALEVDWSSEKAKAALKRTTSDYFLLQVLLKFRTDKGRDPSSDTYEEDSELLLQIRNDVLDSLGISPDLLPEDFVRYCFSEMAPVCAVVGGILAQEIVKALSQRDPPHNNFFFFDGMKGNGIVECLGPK
assay details: SAE HTRF enzyme assay
Type: biochemical
conditions used: SAE inhibition; class symbols, legend in nM
Procedure: Example 215: SAE HTRF enzyme assay The SAE enzymatic reaction totals 50 μl and contains 50 mM HEPES Hemisodium (pH 7.5), 0.05% BSA, 5 mM MgCl2, 0.5 μM ATP, 250 μM GSH, 0.01 μM Ubc9-GST, 0.125 μM Sumo-Flag and 0.11 nM recombinant human SAE enzyme. […] After incubation for 2 hours at 24° C., quantification of FRET is performed on the Pherostar™ (BMG Labtech). Percentage inhibition values at a single concentration or enzyme inhibition (IC50) values are determined from those curves. […]
Item-by-item account of IC50
parameter measured: IC50

>>> measured_value("Cc1nc2c(s1)CCO[C@H]2c1cc(C(=O)c2cncnc2N[C@@H]2C[C@H](COS(N)(=O)=O)[C@@H](O)C2)sc1C (single isomer, unassigned) [I-287b]")
"< 10 nM"
>>> measured_value("NS(=O)(=O)OC[C@H]1C[C@@H](Nc2ncncc2C(=O)c2cc([C@@H]3OCCc4c(Cl)cccc43)cs2)C[C@@H]1O (single isomer, unassigned) [I-301b]")
"< 10 nM"
>>> measured_value("Cc1nc2n(c1C)CCO[C@@H]2c1cc(C(=O)c2cncnc2N[C@@H]2C[C@H](COS(N)(=O)=O)[C@@H](O)C2)sc1C (single isomer, unassigned) [I-356b]")
"< 10 nM"
>>> measured_value("NS(=O)(=O)OC[C@H]1C[C@@H](Nc2ncncc2C(=O)c2cc([C@H]3OCC4(CC4)c4ccccc43)cs2)C[C@@H]1O (mixture of isomers)")
"< 10 nM"
>>> measured_value("NS(=O)(=O)OC[C@H]1C[C@@H](Nc2ncncc2C(=O)c2cc([C@@H]3CCCc4ccc(Cl)cc43)cs2)C[C@@H]1O (single isomer, unassigned) [I-335b]")
"100 to 1000 nM"
>>> measured_value("NS(=O)(=O)OC[C@H]1C[C@@H](Nc2ncncc2C(=O)c2cc([C@@H]3OCC(F)(F)c4ccc(Cl)cc43)cs2)C[C@@H]1O (single isomer, unassigned) [I-289a]")
"100 to 1000 nM"
>>> measured_value("CC(C)(C)OC(=O)N1CCc2ccc(Cl)cc2[C@@H]1c1csc(C(=O)c2cncnc2N[C@@H]2C[C@H](COS(N)(=O)=O)[C@@H](O)C2)c1.CC(C)(C)OC(=O)N1CCc2ccc(Cl)cc2[C@H]1c1csc(C(=O)c2cncnc2N[C@@H]2C[C@H](COS(N)(=O)=O)[C@@H](O)C2)c1 (mixture of isomers)")
"100 to 1000 nM"
>>> measured_value("C[C@@]1(c2csc(C(=O)c3cncnc3N[C@@H]3C[C@H](COS(N)(=O)=O)[C@@H](O)C3)c2)NCCc2ccc(Cl)cc21 (mixture of isomers)")
"< 10 nM"
>>> measured_value("NS(=O)(=O)OC[C@H]1C[C@@H](Nc2ncncc2C(=O)c2cc([C@@H]3OC(=O)c4ccc(Cl)cc43)c(Cl)s2)C[C@@H]1O (mixture of isomers)")
"100 to 1000 nM"
>>> measured_value("NS(=O)(=O)OC[C@H]1C[C@@H](Nc2ncncc2C(=O)c2cc([C@@H]3OCCc4cc(F)c(F)cc43)c(Cl)s2)C[C@@H]1O (single isomer, unassigned) [I-290b]")
"< 10 nM"
>>> measured_value("NS(=O)(=O)OC[C@H]1C[C@@H](Nc2ncncc2C(=O)c2cc([C@@H]3OCCc4ccc(F)cc43)c(Cl)s2)C[C@@H]1O (single isomer, unassigned) [I-294b]")
"< 10 nM"
>>> measured_value("CN1CCc2ccc(Cl)cc2[C@@H]1c1csc(C(=O)c2cncnc2N[C@@H]2C[C@H](COS(N)(=O)=O)[C@@H](O)C2)c1 (single isomer, unassigned) [I-307b]")
"< 10 nM"
>>> measured_value("COc1ccc2c(n1)[C@H](c1cc(C(=O)c3cncnc3N[C@@H]3C[C@H](COS(N)(=O)=O)[C@@H](O)C3)sc1C)OCC2 (single isomer, unassigned) [I-339b]")
"< 10 nM"
>>> measured_value("Cc1sc(C(=O)c2cncnc2N[C@@H]2C[C@H](COS(N)(=O)=O)[C@@H](O)C2)cc1[C@@H]1OCCc2ccc(C#N)cc21.Cc1sc(C(=O)c2cncnc2N[C@@H]2C[C@H](COS(N)(=O)=O)[C@@H](O)C2)cc1[C@H]1OCCc2ccc(C#N)cc21 (mixture of isomers)")
"< 10 nM"
>>> measured_value("NS(=O)(=O)OC[C@H]1C[C@@H](Nc2ncncc2C(=O)c2cc([C@@H]3CCc4ccc(Cl)cc43)cs2)C[C@@H]1O (single isomer, unassigned) [I-349a]")
"100 to 1000 nM"
>>> measured_value("Cc1sc(C(=O)c2cncnc2N[C@@H]2C[C@H](COS(N)(=O)=O)[C@@H](O)C2)nc1[C@H](O)c1cccc(Cl)c1 (single isomer, unassigned) [I-355a]")
"< 10 nM"
>>> measured_value("NS(=O)(=O)OC[C@H]1C[C@@H](Nc2ncncc2C(=O)c2cc([C@@H]3OCC4(CC4)c4ccccc43)cs2)C[C@@H]1O (single isomer, unassigned) [I-281b]")
"< 10 nM"
>>> measured_value("Cc1nc2c(s1)[C@H](c1cc(C(=O)c3cncnc3N[C@@H]3C[C@H](COS(N)(=O)=O)[C@@H](O)C3)sc1C)OCC2 (single isomer, unassigned) [I-305a]")
"100 to 1000 nM"
>>> measured_value("NS(=O)(=O)OC[C@H]1C[C@@H](Nc2ncncc2C(=O)c2cc([C@@H]3OCCc4ccc(Cl)cc43)c(Cl)s2)C[C@@H]1O (single isomer, unassigned) [I-282a]")
"100 to 1000 nM"
>>> measured_value("NS(=O)(=O)OC[C@H]1C[C@@H](Nc2ncncc2C(=O)c2cc([C@@H]3CCCc4ccc(Cl)cc43)cs2)C[C@@H]1O (single isomer, unassigned) [I-335a]")
"100 to 1000 nM"
